Biological target: UniProtKB P29353
Assay: Binding affinity to Shc Src homology 2 domain by fluorescence anisotropy
Where a SMILES comes first, the peptide text is derived from it. [ ]: non-standard residue; d: D form. The star is where a group is joined. X2 = O=C(c1cc(N=C=S)ccc1-c1c2ccc(=O)cc-2oc2cc(O)ccc12)*; pY = N[C@@H](Cc1ccc(OP(=O)(O)O)cc1)C(=O)O; Ahx = NCCCCCC(=O)O; GABA = NCCCC(=O)O
The compounds listed here are annotated with their pKd.
Notebook: values listed as pKd are -log10 of the concentration (mol/L).

Worked examples follow.
{"COMPOUND": "CC(C)C[C@H](NC(=O)CNC(=O)[C@H](CCC(N)=O)NC(=O)[C@H](Cc1ccc(OP(=O)(O)O)cc1)NC(=O)[C@H](CC(C)C)NC(=O)CCCNC(=O)c1cc(N=C=S)ccc1-c1c2ccc(=O)cc-2oc2cc(O)ccc12)C(=O)N[C@@H](CO)C(N)=O ({X2-GABA}-L[pY]QGLS-NH2)", "MEASUREMENT": 5.07}
{"COMPOUND": "CC(C)C[C@H](NC(=O)CNC(=O)[C@H](CCC(N)=O)NC(=O)[C@H](Cc1ccc(OP(=O)(O)O)cc1)NC(=O)c1cc(N=C=S)ccc1-c1c2ccc(=O)cc-2oc2cc(O)ccc12)C(=O)N[C@@H](CO)C(N)=O (HELM PEPTIDE1{[O=C(c1cc(N=C=S)ccc1-c1c2ccc(=O)cc-2oc2cc(O)ccc12)[*:2]].[O=C([C@H](Cc1ccc(OP(=O)(O)O)cc1)N[*:1])[*:2]].Q.G.L.S.[am]}$$$$V2.0)", "MEASUREMENT": 4.91}

With those in mind, consider the next compound.
Prompt: Reported pKd, compound CC(C)C[C@H](NC(=O)CNC(=O)[C@H](CCC(N)=O)NC(=O)[C@H](Cc1ccc(OP(=O)(O)O)cc1)NC(=O)CCCCCNC(=O)c1cc(N=C=S)ccc1-c1c2ccc(=O)cc-2oc2cc(O)ccc12)C(=O)N[C@@H](CO)C(N)=O ({X2-Ahx}-[pY]QGLS-NH2) : ____
Completion: 5.33

* * *

Target: SHC-transforming protein 1 (Homo sapiens)
Sequence (P29353 whole entry): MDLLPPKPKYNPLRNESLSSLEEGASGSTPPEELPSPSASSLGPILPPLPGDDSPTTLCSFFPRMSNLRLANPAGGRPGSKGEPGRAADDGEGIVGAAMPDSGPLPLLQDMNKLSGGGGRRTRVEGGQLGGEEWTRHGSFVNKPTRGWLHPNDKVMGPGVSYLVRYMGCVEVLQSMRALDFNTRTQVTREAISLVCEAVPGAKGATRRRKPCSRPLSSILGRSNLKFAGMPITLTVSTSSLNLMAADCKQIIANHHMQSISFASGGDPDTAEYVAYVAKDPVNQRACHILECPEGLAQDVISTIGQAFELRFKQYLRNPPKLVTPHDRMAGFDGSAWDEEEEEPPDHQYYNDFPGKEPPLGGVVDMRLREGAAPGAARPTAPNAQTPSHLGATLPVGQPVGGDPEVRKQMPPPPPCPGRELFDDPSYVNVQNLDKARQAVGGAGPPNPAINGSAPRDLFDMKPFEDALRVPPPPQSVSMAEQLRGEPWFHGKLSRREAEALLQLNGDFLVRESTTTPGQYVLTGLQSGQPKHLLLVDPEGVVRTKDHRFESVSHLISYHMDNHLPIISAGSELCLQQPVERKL
Assay: Binding affinity to Shc Src homology 2 domain by fluorescence anisotropy
Where a SMILES comes first, the peptide text is derived from it. [ ]: non-standard residue; d: D form. The star is where a group is joined. X2 = O=C(c1cc(N=C=S)ccc1-c1c2ccc(=O)cc-2oc2cc(O)ccc12)*; pY = N[C@@H](Cc1ccc(OP(=O)(O)O)cc1)C(=O)O; 3Amb = NCc1cccc(C(=O)O)c1; Ava = NCCCCC(=O)O; GABA = NCCCC(=O)O
MEASURE: Kd (µM)
Please reply with the bare figure in µM and do not write the unit itself.

Solved entries:
{"COMPOUND": "CC(C)C[C@H](NC(=O)CNC(=O)[C@H](CCC(N)=O)NC(=O)[C@H](Cc1ccc(OP(=O)(O)O)cc1)NC(=O)[C@H](CC(C)C)NC(=O)CCCCNC(=O)c1cc(N=C=S)ccc1-c1c2ccc(=O)cc-2oc2cc(O)ccc12)C(=O)N[C@@H](CO)C(N)=O ({X2-Ava}-L[pY]QGLS-NH2)", "TARGET_OF_ASSAY": "SHC-transforming protein 1 (Homo sapiens)", "UNIT_DESCRIPTOR": "µM", "Kd": 8.9}
{"COMPOUND": "CC(C)C[C@H](NC(=O)CNC(=O)[C@H](CCC(N)=O)NC(=O)[C@H](Cc1ccc(OP(=O)(O)O)cc1)NC(=O)c1cccc(CNC(=O)c2cc(N=C=S)ccc2-c2c3ccc(=O)cc-3oc3cc(O)ccc23)c1)C(=O)N[C@@H](CO)C(N)=O ({X2-3Amb}-[pY]QGLS-NH2)", "TARGET_OF_ASSAY": "SHC-transforming protein 1 (Homo sapiens)", "UNIT_DESCRIPTOR": "µM", "Kd": 5}
{"COMPOUND": "CC(C)C[C@H](NC(=O)CNC(=O)[C@H](CCC(N)=O)NC(=O)[C@H](Cc1ccc(OP(=O)(O)O)cc1)NC(=O)CCCNC(=O)c1cc(N=C=S)ccc1-c1c2ccc(=O)cc-2oc2cc(O)ccc12)C(=O)N[C@@H](CO)C(N)=O ({X2-GABA}-[pY]QGLS-NH2)", "TARGET_OF_ASSAY": "SHC-transforming protein 1 (Homo sapiens)", "UNIT_DESCRIPTOR": "µM", "Kd": 7.2}
{"COMPOUND": "CC(C)C[C@H](NC(=O)CNC(=O)[C@H](CCC(N)=O)NC(=O)[C@H](Cc1ccc(OP(=O)(O)O)cc1)NC(=O)CCCCNC(=O)c1cc(N=C=S)ccc1-c1c2ccc(=O)cc-2oc2cc(O)ccc12)C(=O)N[C@@H](CO)C(N)=O ({X2-Ava}-[pY]QGLS-NH2)", "TARGET_OF_ASSAY": "SHC-transforming protein 1 (Homo sapiens)", "UNIT_DESCRIPTOR": "µM", "Kd": 0.35}

Prompt: Suppose we examine the compound CC(C)C[C@H](NC(=O)CNC(=O)[C@H](CCC(N)=O)NC(=O)[C@H](Cc1ccc(OP(=O)(O)O)cc1)NC(=O)[C@H](CC(C)C)NC(=O)CCNC(=O)c1cc(N=C=S)ccc1-c1c2ccc(=O)cc-2oc2cc(O)ccc12)C(=O)N[C@@H](CO)C(N)=O (HELM PEPTIDE1{[O=C(c1cc(N=C=S)ccc1-c1c2ccc(=O)cc-2oc2cc(O)ccc12)[*:2]].[bAla].L.[O=C([C@H](Cc1ccc(OP(=O)(O)O)cc1)N[*:1])[*:2]].Q.G.L.S.[am]}$$$$V2.0) ; what Kd value has been reported?
Completion: 7.6

Prompt: Try CC(C)C[C@H](NC(=O)CNC(=O)[C@H](CCC(N)=O)NC(=O)[C@H](Cc1ccc(OP(=O)(O)O)cc1)NC(=O)CCNC(=O)c1cc(N=C=S)ccc1-c1c2ccc(=O)cc-2oc2cc(O)ccc12)C(=O)N[C@@H](CO)C(N)=O (HELM PEPTIDE1{[O=C(c1cc(N=C=S)ccc1-c1c2ccc(=O)cc-2oc2cc(O)ccc12)[*:2]].[bAla].[O=C([C@H](Cc1ccc(OP(=O)(O)O)cc1)N[*:1])[*:2]].Q.G.L.S.[am]}$$$$V2.0) next.
Completion: 1.09
